Ref: the supplement of paper PMC12350171

test system: S. enterica typhimurium tolC KO; assay: growth AUC normalised to DMSO control (median) (fraction of control); higher = less growth inhibition, active = hit call of the paper; details: 20 µM
Where a name gives a salt, the structure may show the parent alone.
READOUT_TYPE: growth AUC normalised to DMSO control
Number only, no unit.

Consider the following illustrative entries.
INSERT INTO measurements (compound, assayed_target, readout_type, meas_value) VALUES
  ('CC(=O)N[C@@H](CS)C(=O)O', 'S. enterica typhimurium tolC KO', 'growth AUC normalised to DMSO control', 0.991),
  ('CCCCc1ncc(/C=C(\Cc2cccs2)C(=O)O)n1Cc1ccc(C(=O)O)cc1 [Eprosartan mesylate]', 'S. enterica typhimurium tolC KO', 'growth AUC normalised to DMSO control', 1);

Item CSc1ccc2c(c1)N(CCC1CCCCN1C)c1ccccc1S2 (stereo not given) [Thioridazine hydrochloride] with S. enterica typhimurium tolC KO - growth AUC normalised to DMSO control?
0.957

Find growth AUC normalised to DMSO control (S. enterica typhimurium tolC KO) for the entry Cn1cnc([N+](=O)[O-])c1Sc1ncnc2[nH]cnc12
0.998

Recall the recorded growth AUC normalised to DMSO control for Cc1c(O)cccc1C(=O)N[C@@H](CSc1ccccc1)[C@H](O)CN1C[C@H]2CCCC[C@H]2C[C@H]1C(=O)NC(C)(C)C [Nelfinavir mesylate] with S. enterica typhimurium tolC KO and state it.
0.962

Observed growth AUC normalised to DMSO control on S. enterica typhimurium tolC KO for Cn1nnc2c(C(N)=O)ncn2c1=O [Temozolomide] , please.
1.01

Query the reported growth AUC normalised to DMSO control for S. enterica typhimurium tolC KO; item: COc1ccc2cc([C@@H](C)C(=O)O)ccc2c1 [(R) Naproxen sodium salt]
1.02

Lab note: need growth AUC normalised to DMSO control with S. enterica typhimurium tolC KO for entry CN(C)CCCN1c2ccccc2[S+]([O-])c2ccc(Cl)cc21 (stereo not given) [Chlorpromazine Sulfoxide] , please look it up.
1.01

S. enterica typhimurium tolC KO / growth AUC normalised to DMSO control / CCCCN(CCCC)CCC(O)c1cc2c(Cl)cc(Cl)cc2c2cc(C(F)(F)F)ccc12 (stereo not given) [Halofantrine hydrochloride] : value?
1.01

----------
tested on: Yersinia pseudotuberculosis; experiment: growth AUC normalised to DMSO control (fraction of control); higher = less growth inhibition, active = hit call of the paper; details: 20 µM
Where a name gives a salt, the structure may show the parent alone.
READOUT_TYPE: growth AUC normalised to DMSO control
Respond numerically, and do not add a unit to the figure.

INSERT INTO results (compound, meas_value) VALUES
  ('OC(CCN1CCCCC1)(c1ccccc1)C1CC2C=CC1C2 (stereo not drawn) [Biperiden hydrochloride]', 1),
  ('COc1ccc2[nH]c([S+]([O-])Cc3ncc(C)c(OC)c3C)nc2c1 (stereo not drawn) [Omeprazole]', 1);

Query growth AUC normalised to DMSO control on Yersinia pseudotuberculosis for CC[N+](C)(CC)CCOC(=O)C1c2ccccc2Oc2ccccc21 [Methantheline bromide]
1

----------
Consider the following compounds and their measured growth AUC normalised to DMSO control readings.
tested on: S. enterica typhimurium WT; assay: growth AUC normalised to DMSO control (median) (fraction of control); higher = less growth inhibition, active = hit call of the paper; details: 20 µM
Where a name gives a salt, the structure may show the parent alone.

Which growth AUC normalised to DMSO control value belongs to CCNC(=O)CCC/C=C\C[C@@H]1[C@@H](/C=C/[C@@H](O)CCc2ccccc2)[C@H](O)C[C@@H]1O ?
1.01 (inactive)

Recorded growth AUC normalised to DMSO control of O=C(Nc1ccccc1)OCC(CN1CCCCC1)OC(=O)Nc1ccccc1 (centres undefined) [Diperodon hydrochloride] , please.
0.997 (inactive)

growth AUC normalised to DMSO control for CCCCCN(CCCCC)C(=O)C(CCC(=O)O)NC(=O)c1ccc(Cl)c(Cl)c1 (centres undefined) [Lorglumide sodium salt] ?
1 (inactive)

I have this compound here, CC1(C)NC(=O)N(c2ccc([N+](=O)[O-])c(C(F)(F)F)c2)C1=O [Nilutamide] , and I need its recorded growth AUC normalised to DMSO control.
0.992 (inactive)

Using the record for O=P(O)(O)C(O)(Cn1ccnc1)P(=O)(O)O [Zoledronic acid hydrate] , report its growth AUC normalised to DMSO control.
1.01 (inactive)

Find the recorded growth AUC normalised to DMSO control belonging to CCCNC(C)(C)COC(=O)c1ccccc1 [Meprylcaine hydrochloride] and report it.
1 (inactive)

Record request: growth AUC normalised to DMSO control value, item C[C@H]1[C@@H](O)O[C@@H]2O[C@@]3(C)CC[C@H]4[C@H](C)CC[C@@H]1[C@@]24OO3
1 (inactive)

Quick one: growth AUC normalised to DMSO control of CCCNC(=O)NS(=O)(=O)c1ccc(Cl)cc1 [Chlorpropamide] ?
1.01 (inactive)

GET /values?readout=growth AUC normalised to DMSO control&item= CCc1oc2ccccc2c1C(=O)c1ccc(O)cc1
1 (inactive)

Find the recorded growth AUC normalised to DMSO control belonging to COc1ccc(CN(CCN(C)C)c2ccccn2)cc1 [Pyrilamine maleate] and report it.
0.993 (inactive)

----------
test system: S. enterica typhimurium WT; assay: growth AUC normalised to DMSO control (median) (fraction of control); higher = less growth inhibition, active = hit call of the paper; conditions: 20 µM
A correct response names exactly one class from active, inactive

Any idea what this test logged for O=C(O)COc1nn(Cc2ccccc2)c2ccccc12 ?
inactive

----------
Property: growth AUC normalised to DMSO control; scope: individual compounds
tested on: P. vulgatus RND KO; assay: growth AUC normalised to DMSO control (median) (fraction of control); higher = less growth inhibition, active = hit call of the paper; conditions: 20 µM
Structures can show the parent of a compound that is named as a salt.
Field format: numeric only.

INSERT INTO results (compound, assayed_target, meas_value) VALUES
  ('NS(=O)(=O)c1cc2c(cc1Cl)N=CNS2(=O)=O [Chlorothiazide]', 'P. vulgatus RND KO', 1.03);

Given the entry CN(C)CCOC(c1ccc(Cl)cc1)c1ccccn1 (stereo not given) [Carbinoxamine maleate salt] , report its measured growth AUC normalised to DMSO control.
1.07

Returns the measured growth AUC normalised to DMSO control for the input compound. Input: CCC(=O)O[C@@H](O[P@](=O)(CCCCc1ccccc1)CC(=O)N1C[C@H](C2CCCCC2)C[C@H]1C(=O)O)C(C)C
0.998

Returns the measured growth AUC normalised to DMSO control for the input compound. Input: CC/C(=C(\c1ccccc1)c1ccc(OCCN(C)C)cc1)c1ccccc1 [Tamoxifen citrate]
0.968

May I ask what growth AUC normalised to DMSO control has been recorded for Cc1ccc(/C(=C\CN2CCCC2)c2ccccn2)cc1 [Triprolidine hydrochloride] ?
1

Give its growth AUC normalised to DMSO control value. Item: CC(C)(C)NC[C@H](O)COc1ccccc1C1CCCC1 [Penbutolol sulfate]
0.994

Fill blank: measured growth AUC normalised to DMSO control of the compound O=C1NCCN1CCN1CCC(c2cn(-c3ccc(F)cc3)c3ccc(Cl)cc23)CC1 is ____.
0.833

Given the entry CCOC(=O)[C@H](CCc1ccccc1)N[C@H]1CS[C@H](c2cccs2)CN(CC(=O)O)C1=O [Temocapril hydrochloride] , report its measured growth AUC normalised to DMSO control.
1.02

Entry C#C[C@]1(OC(C)=O)CC[C@H]2[C@@H]3CCC4=CC(=NO)CC[C@@H]4[C@H]3CC[C@@]21CC (mixture of isomers) [Norgestimate] has what growth AUC normalised to DMSO control?
0.836

Field request: growth AUC normalised to DMSO control | item: Cn1cnc2c1c(=O)[nH]c(=O)n2C
1.02

Any idea what its growth AUC normalised to DMSO control is? The compound is CN1[C@@H]2CC[C@H]1C[C@@H](OC(c1ccccc1)c1ccccc1)C2 [Benztropine mesylate]
0.944

Give the measured growth AUC normalised to DMSO control of Oc1c(Cl)cc(Cl)c(Cl)c1Cc1c(O)c(Cl)cc(Cl)c1Cl .
0.00764

Requested field: growth AUC normalised to DMSO control. Item: NS(=O)(=O)Cc1noc2ccccc12 [Zonisamide]
1

----------
system: P. vulgatus WT; assay: growth AUC normalised to DMSO control (median) (fraction of control); higher = less growth inhibition, active = hit call of the paper; conditions: 20 µM
Where a name gives a salt, the structure may show the parent alone.
Property: growth AUC normalised to DMSO control; scope: individual compounds
Form: value (number only, do not type unit).

Worked set:
INSERT INTO results (compound, meas_value) VALUES
  ('C[C@H](CCC(=O)O)[C@H]1CC[C@H]2[C@@H]3[C@H](O)C[C@@H]4C[C@H](O)CC[C@]4(C)[C@H]3CC[C@]12C', 0.94),
  ('OC(CCN1CCCCC1)(c1ccccc1)c1ccccc1 [Pridinol methanesulfonate salt]', 0.953);

Please look at the following compound next.
Consider the compound shown here: Cc1ccccc1C(=O)Nc1ccc(C(=O)N2CCCC(O)c3cc(Cl)ccc32)c(C)c1 (stereo not drawn) What is its recorded growth AUC normalised to DMSO control?
0.928
